- System Name: T1, MPDZ_10, O75970
- T1 sequence (O75970 1624-1722, limits assumed, looked up): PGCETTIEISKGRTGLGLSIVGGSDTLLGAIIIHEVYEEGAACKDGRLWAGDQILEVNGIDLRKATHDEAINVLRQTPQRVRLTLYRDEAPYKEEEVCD
- Assay Comment: holdup assay
- Set-up: key: below the threshold = too weak to quantify, mostly under pKd 3.1 to 4
- Stated Conditions: plain residues with an end cap or a label only (N-terminal biotin on a linker: ttds)
Metric: pKd

Binder	Result Value
RSLEEEESQL [GRASP, Q7Z6J2]	below the threshold
TVASEKESVM [SLC1A5, Q15758]	below the threshold
SVWLRKETRV [CYSLTR2, Q9NS75]	3.92
GQDSREETQL [KCNT2, Q6UVM3]	below the threshold
STLTIFETAL [ABCC4, O15439]	below the threshold
SSRTRRETQL [HPV16-E6, P03126]	3.68
QSARYRDTEL [TJP2, Q9UDY2]	below the threshold
VLRLQSETSV [VANGL1, Q8TAA9]	below the threshold
ERKLSSESQV [LRP4, O75096]	below the threshold
SRPQRTQTQV [HPV67-E6, A4U7F2]	3.4
IDNDTESTAL [ARHGAP17, Q68EM7]	below the threshold
IYVPEAQTRL [DLGAP4, Q9Y2H0]	below the threshold
PKTPPTDTSV [KIR3DL3, Q8N743]	below the threshold
